Exercise: for every item that follows, state its recorded TGI.
- Tested on: CAKI-1 renal
- assay-summary: NCI tumour cell line growth inhibition, 48 h

Inquiry: TGI lookup needed for O=C(c1ccccc1)C1N=NN(Cc2ccccc2[N+](=O)[O-])C1C(=O)c1ccccc1 (centres undefined) , thanks.
Reply text: > 100 µM

Inquiry: TGI lookup needed for O=C(CNc1ccccc1C(=O)O)Nn1cnc2ccc(S(=O)(=O)Nc3ccccc3C(=O)O)cc2c1=O , thanks.
Reply text: > 100 µM

Inquiry: TGI lookup needed for CSC(SC)=C(C(=O)c1ccc(Cl)cc1)n1c(=O)sc2cc(Br)ccc21 , thanks.
Reply text: > 100 µM

Inquiry: TGI lookup needed for CCCCNC(c1ccc(Cl)cc1)C(O)c1ccc(Cl)cc1 (centres undefined) , thanks.
Reply text: 6.63 µM

Inquiry: TGI lookup needed for O=c1c(-c2ccc3c(c2)OCO3)coc2c3c(ccc12)OCO3 , thanks.
Reply text: > 100 µM

Inquiry: TGI lookup needed for CC(=O)C(=Cc1cn(C)c(=O)n(C)c1=O)C(C)=O , thanks.
Reply text: 224 µM

Inquiry: TGI lookup needed for COc1cc(N2C(=O)[C@H](Cl)C2c2ccc(SC)cc2)cc(OC)c1OC (some centres undefined) , thanks.
Reply text: > 100 µM

Inquiry: TGI lookup needed for O=[N+]([O-])c1ccc(-n2nc3ccc4nonc4c3n2)cc1 , thanks.
Reply text: 73.7 µM

Inquiry: TGI lookup needed for COc1ccc(-n2cc(-c3ccc(OC)c(OC)c3)[nH]c2=O)cc1 , thanks.
Reply text: > 100 µM
